# Tested on: Chordin-like protein 2 (CHRDL2)
# assay-protocol: CHRDL2 small-molecule binders, primary screen, biochemical, small-molecule microarray, 635 nm fluorescence (AID 1126);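 also: printed compound slides probed with Chrdl2 protein at 4 µg/mL for 1 h at 4 C; score merges 667 nm emission intensity with signal to noise over three replicate slides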
# recorded-conditions: small-molecule microarray binding, fluorescence 635 nm; higher = more signal
quantity-name: composite z-score
Form rule: numeric answer, no unit written next to it.

Query: Fill in composite z-score for `COc1ccc(C(=O)Nc2ccc(CN3C(=O)[C@]4(O[C@H](CCO)[C@@H]([Si](C)(C)c5ccc(OC)cc5)[C@@H]4C)c4ccccc43)cc2)cc1` tested with Chordin-like protein 2 (CHRDL2).
Result: 0.531

Query: Give composite z-score for `COCCOC(=O)N1C(=O)[C@@]2(c3cc(C#CCCO)ccc31)[C@H](C(=O)N1CCCCCCC1)[C@H]1C(=O)O[C@H](c3ccccc3)[C@H](c3ccccc3)N1[C@@H]2c1ccc(OCCO)cc1` tested on Chordin-like protein 2 (CHRDL2).
Result: 1.26

Query: Write down measured composite z-score (Chordin-like protein 2 (CHRDL2)) for this compound. C=CCC(OC(C)=O)[C@@H]1[C@@H](N(Cc2ccc(-c3ccccc3)cc2)C(=O)c2ccc(-c3ccccc3)cc2)c2cc(OCCCO)ccc2N1C(=O)Cc1ccc2ccccc2c1 (some centres undefined)
Result: 0.156

Query: State composite z-score (Chordin-like protein 2 (CHRDL2)) of `CCCC[C@@H]1C[C@H]1[C@@H](NC(=O)c1ccco1)c1ccccc1C(F)(F)F` .
Result: 0.23

Query: System Chordin-like protein 2 (CHRDL2). Read-out composite z-score. Item `COCCOC(=O)N1C(=O)[C@@]2(c3cc(C#CCC(C(=O)OC)C(=O)OC)ccc31)[C@H](C(=O)Nc1nc3ccccc3s1)[C@H]1C(=O)O[C@H](c3ccccc3)[C@H](c3ccccc3)N1[C@@H]2c1ccccc1OCCO` . Report value.
Result: -0.0859

Query: For Chordin-like protein 2 (CHRDL2), give composite z-score of the listed compound: `O=C(CS)NCCCCCCNC(=O)[C@@H]1C[C@@H]2C(=O)NCC(=O)N2[C@@H]1c1cccc(OCCO)c1`
Result: 0.26

Query: State composite z-score on Chordin-like protein 2 (CHRDL2). Entry: O=C1NC(=O)C2C1C=CC(C(O)c1cc(C(F)(F)F)cc(C(F)(F)F)c1)N2Nc1ccccn1 (centres undefined)
Result: 0.673

Query: Using Chordin-like protein 2 (CHRDL2) as the test system, report measured composite z-score of CN1C(=O)C2C=CC(C(O)c3ccc([N+](=O)[O-])cc3)N(N3CCCCC3)C2C1=O (centres undefined) .
Result: 0.172

Query: Provide the reported composite z-score (system: Chordin-like protein 2 (CHRDL2)) for `CCCC#C[Si](O[C@H](CC)c1cn(Cc2cccc(Cl)c2)nn1)(C(C)C)C(C)C`
Result: 0.103
